# STUDY_TARGET: Kv7.2/7.3 (Homo sapiens, UniProt O43525+O43526)
# Construct: host or cells: HEK cells, tetracycline-inducible expression
# PROTOCOL_DESCRIPTION: Kv7.2/7.3 activation assay, QPatch planar patch-clamp, single concentration screen
# Format: cell-based
# Parameters: key: <1.2-fold increase over baseline (−); +/−: as a range from <1.2-fold increase over baseline (−) up to >6-fold increase over baseline (+++); as a range from <1.2-fold increase over baseline (−) up to >6-fold increase over baseline (+++); as a range from <1.2-fold increase over baseline (−) up to >6-fold increase over baseline (+++); >6-fold increase over baseline (+++)
# PARTICULARS: Kv7.2/Kv7.3 co-expressing HEK cells, compound 3 μM, steady-state current at end of 2 s pulse to −30 mV
PARAMETER_MEASURED: Kv7.2/7.3 Activity: increase in current over baseline

Some molecules with recorded Kv7.2/7.3 Activity: increase in current over baseline:
>  <MOLECULE>
CC(C)(O)c1ccc2nc(NC(=O)CC(O)(C3CC3)C3CC3)n(C3CCC3)c2c1 [Example 97]

>  <MEASUREMENT>
+/−

$$$$
>  <MOLECULE>
CC(C)(O)[C@H]1C[C@@H]1C(=O)Nc1nc2ccc(C#N)cc2n1C1CCC1 [Example 15]

>  <MEASUREMENT>
+/−

$$$$
>  <MOLECULE>
CC1(n2c(NC(=O)C[C@](C)(O)c3ccc(Cl)cc3)nc3ccc(C#N)cc32)CCC1 [Example 140]

>  <MEASUREMENT>
+/−

$$$$
>  <MOLECULE>
Cc1cc2nc(NC(=O)C[C@](C)(O)c3ccccc3F)n(C3CCC3)c2cc1C#N [Example 126]

>  <MEASUREMENT>
++

$$$$
>  <MOLECULE>
CN(C)C(CC(=O)Nc1nc2ccc(C#N)cc2n1C1CCC1)C(F)(F)F (centres unmarked) [Example 24]

>  <MEASUREMENT>
+

$$$$

Ask: // lookup Kv7.2/7.3 Activity: increase in current over baseline for Cc1cc2nc(NC(=O)C[C@](C)(O)c3ccc(F)cc3)n(C3CCC3)c2cc1C#N [Example 125]
Reply: +/−

Ask: And CC(C)(C)CC(=O)Nc1nc2ccc(CC(C)(C)O)c(F)c2n1C1CCC1 [Example 114] ?
Reply: +

Ask: And C[C@H](C(=O)Nc1nc2ccc(C#N)cc2n1C1CCC1)C(C)(C)O [Example 13] ?
Reply: +/−
